Each entry below carries its recorded inhibition.
Test system: Clostridium botulinum
ASSAY INFO: Zinc chelating activity mediated inhibition of Clostridium botulinum BoNT/A LC activity at 15 uM using SNAPtide as substrate measured for 10 mins by FRET assay relative to control
Could you give me the number in %? Just the number is fine.

CC[C@H](C)[C@H](NC(=O)[C@H](CC(C)C)NS(=O)(=O)c1ccc(-c2ccc(Cl)cc2)cc1)C(=O)NO = 100
CC[C@H](C)[C@H](NS(=O)(=O)c1ccc(-c2ccc(Cl)cc2)cc1)C(=O)N[C@@H](C(=O)NO)[C@@H](C)CC = 57
CC[C@H](C)[C@H](NS(=O)(=O)c1ccc(-c2ccc(Cl)cc2)cc1)C(=O)N[C@@H](Cc1ccccc1)C(=O)NO = 44

Proceeding to the next compound to report its inhibition.
Task: // returns reported inhibition for input CC[C@H](C)[C@H](NC(=O)[C@H](Cc1ccccc1)NS(=O)(=O)c1ccc(Br)cc1)C(=O)NO
Result: 87
